Attribution: the supplement of paper PMC11451515

Exercise: state measured cell viability for each of the molecules provided.
System: P12-Ichikawa
Experiment: cell viability relative to DMSO control; higher = less cytotoxic
Conditions: RPMI 5 mM glucose + 10% dialyzed FBS; 48 h; 0.569 µM
Answers are plain numbers, in %.

Solved cases (3 shown):
# Molecule, Tgt, Unit Symbol, cell viability
data = [
    ("CCN(CC)C(=S)SSC(=S)N(CC)CC", "P12-Ichikawa", "%", 108),
    ("O=C1Nc2ccc(Cl)cc2[C@@](C#CC2CC2)(C(F)(F)F)O1", "P12-Ichikawa", "%", 78.4),
    ("OC(=O)\\C1=C\\N(C2=CC=C(F)C=C2)C3=C(C=C(F)C(=C3)N4CCNCC4)C1=O", "P12-Ichikawa", "%", 111),
]

So what's the measured cell viability for this one? CC(=O)CC(C1=CC=CC=C1)C/2=C(O)/C3=CC=CC=C3OC2=O (centres undefined)
125

---

System: NOMO1
Assay: cell viability relative to DMSO control; higher = less cytotoxic
Conditions: RPMI 5 mM glucose + 10% FBS; 48 h; 0.000781 µM
Reported Property: cell viability (%)
One number for each entry, in %.

Worked cases, cell viability given:
# Molecule, Unit Symbol, cell viability
records = [
    ("NC(=O)c1ncn([C@@H]2O[C@H](CO)[C@@H](O)[C@H]2O)n1", "%", 104),
    ("O=C1Nc2ccc(Cl)cc2[C@@](C#CC2CC2)(C(F)(F)F)O1", "%", 73.7),
]

Give one value of cell viability per listed molecule.
1. CC(=O)N1CCN(c2ccc(OC[C@H]3CO[C@](Cn4ccnc4)(c4ccc(Cl)cc4Cl)O3)cc2)CC1
2. COc1cc2c(Nc3ccc(Cl)c(Cl)c3F)ncnc2cc1OC[C@@H]1C[C@@H]2CN(C)C[C@@H]2C1
3. N[S+](=O)([O-])c1cc(Cl)c(Cl)c([S+](N)(=O)[O-])c1
4. CC(C)n1nc(-c2ccc3oc(N)nc3c2)c2c(N)ncnc21
5. Cn1c(Nc2ccc(C(F)(F)F)cc2)nc2cc(Oc3ccnc(-c4nc(C(F)(F)F)c[nH]4)c3)ccc21

1. 113
2. 114
3. 112
4. 93.1
5. 124

Would you mind giving cell viability for every molecule in the list below?
1. COc1cc(C)c(Sc2cnc(NC(=O)c3ccc(CNC(C)C(C)(C)C)cc3)s2)cc1C(=O)N1CCN(C(C)=O)CC1 (configuration not stated)
2. CC[C@H]1/C=C\C=C/C[C@@H](C)[C@H](O)[C@@](C)(O)C(=O)[C@@H](C)[C@H](O)[C@@H](C)C(=O)[C@@H](C)[C@H](O)[C@@H](C)/C=C/C(=O)O[C@@H]2[C@H](C)[C@H](CC1)O[C@]1(CC[C@H](C)[C@H](C[C@@H](C)O)O1)[C@H]2C
3. CCOc1cc(N)c(Cl)cc1C(=O)NCC1CN(Cc2ccc(F)cc2)CCO1 (configuration not stated)
4. Cc1nccn1CC1CCc2c(c3ccccc3n2C)C1=O (configuration not stated)
5. CN1\C(=C(\O)C2=C(C=CS2)[S+]1([O-])=O)C(=O)NC3=CC=CC=N3
6. O=C(CO)N1CCC(c2n[nH]c(-c3ccc(Cl)cc3)c2-c2ccncn2)CC1
7. O=C1C[C@@H](c2ccc(O)cc2)Oc2cc(O)cc(O)c21

[116, 83, 102, 115, 100, 111, 128]

I have 8 molecules here; please give me cell viability for each one.
1. CN(C)CCc1c[nH]c2ccc(C[C@H]3COC(=O)N3)cc12
2. Cc1ncc(OC[C@@]2(c3cccc(F)c3)C[C@H]2C(=O)Nc2ccc(F)cn2)c(C)n1
3. C[C@H]1C[C@H]2[C@@H]3CCC4=CC(=O)C=C[C@]4(C)[C@@]3(F)[C@@H](O)C[C@]2(C)[C@@]1(O)C(=O)CO
4. C[N+]1(C)[C@@H]2C[C@@H](OC(=O)[C@H](CO)c3ccccc3)C[C@H]1[C@@H]1O[C@@H]12.[Br-]
5. OC(=O)\C1=C\N(C2=CC=C(F)C=C2)C3=C(C=C(F)C(=C3)N4CCNCC4)C1=O
6. CC1=CC=CC=C1CN2C(=O)C/3=C(/CCN(CC4=CC=CC=C4)C3)N\5CC\N=C25
7. C=CC1=C(C(=O)O)N2C(=O)[C@@H](NC(=O)/C(=N\O)c3csc(N)n3)[C@H]2SC1
8. CC(=O)N1CCN(c2ccc(OCc3nn(C)c(C)c3-c3cccc4c(CCCOc5cccc6ccccc56)c(C(=O)O)n(Cc5cccnc5)c34)cc2)CC1

[104, 105, 120, 95.5, 103, 109, 104, 110]

Could I get cell viability for every one of these entries?
1. Cc1cc(Nc2nc(N[C@@H](C)c3ncc(F)cn3)ncc2Cl)n[nH]1
2. COc1cc2c(Oc3ccc(NC(=O)C4(C(=O)Nc5ccc(F)cc5)CC4)cc3F)ccnc2cc1OCCCN1CCOCC1
3. CC(C)(C)C(=O)OCOP(=O)(COCCn1cnc2c(N)ncnc21)OCOC(=O)C(C)(C)C
4. CC(C)Nc1cc(C(F)(F)F)cc2nc(NC(=O)c3cccnc3)nn12
5. CNC1[C@@H](O)C(O[C@@H]2C(O)C(O[C@H]3O[C@H]([C@@H](C)NC)CC[C@H]3N)[C@@H](N)C[C@H]2N)OC[C@]1(C)O (some centres not stated)
6. CCC1(c2ccc(N)cc2)CCC(=O)NC1=O (configuration not stated)
7. CCC(=O)OCC(=O)[C@@]1(OC(=O)CC)[C@@H](C)C[C@H]2[C@@H]3CCC4=CC(=O)C=C[C@]4(C)[C@@]3(F)[C@@H](O)C[C@@]21C
8. CCCCNc1cc(C(=O)O)cc([S+](N)(=O)[O-])c1Oc1ccccc1

114
80.8
109
106
93.4
106
99.3
118

Quick request: cell viability for each listed item, please.
1. COc1cc(O)c2c(c1)C1OC1C[C@H](O)[C@H](O)C(=O)/C=C\C[C@H](C)OC2=O (some centres not stated)
2. CCOC(=O)N1CCN(/[N+]([O-])=N/Oc2ccc([N+](=O)[O-])cc2[N+](=O)[O-])CC1

109
80

---

System: SEM cells
Experiment: cell viability relative to DMSO control; higher = less cytotoxic
Details: HPLM + 10% dialyzed FBS; 48 h; 0.569 µM
Reported Property: cell viability (%)
Give bare numbers, in %.

Reference set, count: 7
# Compound, cell viability, %
data = [
    ("CCC(=O)OCC(=O)[C@@]1(OC(=O)CC)[C@@H](C)C[C@H]2[C@@H]3CCC4=CC(=O)C=C[C@]4(C)[C@@]3(F)[C@@H](O)C[C@@]21C", 84.2),
    ("CC(C)Nc1cc(-c2c[nH]c(C(=O)N[C@H](CO)c3cccc(Cl)c3)c2)c(Cl)cn1", 144),
    ("CC(=O)CC(C1=CC=CC=C1)C/2=C(O)/C3=CC=CC=C3OC2=O (stereo not drawn)", 103),
    ("CC(C)Nc1cc(C(F)(F)F)cc2nc(NC(=O)c3cccnc3)nn12", 102),
    ("NC(CO)(CO)CCc1ccc(Sc2cccc(OCc3ccccc3)c2)cc1Cl", 6.82),
    ("CC(C)[C@@H](C[S+](=O)([O-])C(C)C)N1C(=O)[C@@](C)(CC(=O)O)C[C@H](c2cccc(Cl)c2)[C@H]1c1ccc(Cl)cc1", 85.9),
    ("N=C(N)NC(=O)c1nc(Cl)c(N)nc1N", 136),
]

# ---- query compound ----
Would you kindly share the measured cell viability for C[N+]1(C)[C@@H]2C[C@@H](OC(=O)[C@H](CO)c3ccccc3)C[C@H]1[C@@H]1O[C@@H]12.[Br-] ?
110

---

Test system: P12-Ichikawa
Assay: cell viability relative to DMSO control; higher = less cytotoxic
Settings: RPMI 5 mM glucose + 10% FBS; 48 h; 0.0211 µM
Please provide measured cell viability for the entries that follow.
Numbers only, in %.

Previously resolved entries follow.
# Molecule, Experimental Result
measured = [
    ("Cc1cc(Nc2nc(N[C@@H](C)c3ncc(F)cn3)ncc2Cl)n[nH]1", 126),
    ("C[N+]1(C)[C@@H]2C[C@@H](OC(=O)[C@H](CO)c3ccccc3)C[C@H]1[C@@H]1O[C@@H]12.[Br-]", 99.1),
    ("CCOc1cc(N)c(Cl)cc1C(=O)NCC1CN(Cc2ccc(F)cc2)CCO1 (configuration not stated)", 112),
    ("C[C@H]1C[C@H]2[C@@H]3CCC4=CC(=O)C=C[C@]4(C)[C@@]3(F)[C@@H](O)C[C@]2(C)[C@@]1(O)C(=O)CO", 108),
    ("CC(C)C[C@H](NC(=O)[C@@H](NC(=O)c1cccc(-c2ccccc2)n1)[C@@H](C)O)B(O)O", 110),
    ("COc1cc(O)c2c(c1)C1OC1C[C@H](O)[C@H](O)C(=O)/C=C\\C[C@H](C)OC2=O (some centres not stated)", 110),
    ("CC(C)Oc1cc(Nc2nc(N[C@@H](C)c3ccc(F)cn3)ncc2Cl)n[nH]1", 106),
    ("O=C1C[C@@H](c2ccc(O)cc2)Oc2cc(O)cc(O)c21", 124),
    ("c1cc(CN2CCCNCCNCCCNCC2)ccc1CN1CCCNCCNCCCNCC1", 12.9),
    ("CN(C/C=C/C#CC(C)(C)C)Cc1cccc2ccccc12", 93.8),
]

Give cell viability for all molecules that follow.
1. CCN(CC)CCCCNc1nc2cc(Cl)c(Cl)cc2nc1-c1ccc(-c2cccs2)s1
2. COC[C@@H](NC(C)=O)C(=O)NCc1ccccc1
3. CCC[C@H](N[C@@H](C)C(=O)N1[C@H](C(=O)O)C[C@@H]2CCCC[C@@H]21)C(=O)OCC
4. N[S+](=O)([O-])c1cc(Cl)c(Cl)c([S+](N)(=O)[O-])c1

1: 123; 2: 112; 3: 112; 4: 113

// for each molecule below, give its cell viability
1. NC1=NC=C(C=C1)C2=CC=C3N=CC\4=C(N(C(=O)\C=C4)C5=CC(=CC=C5)C(F)(F)F)C3=C2
2. CC[C@H]1/C=C\C=C/C[C@@H](C)[C@H](O)[C@@](C)(O)C(=O)[C@@H](C)[C@H](O)[C@@H](C)C(=O)[C@@H](C)[C@H](O)[C@@H](C)/C=C/C(=O)O[C@@H]2[C@H](C)[C@H](CC1)O[C@]1(CC[C@H](C)[C@H](C[C@@H](C)O)O1)[C@H]2C
3. CN(C)CCc1c[nH]c2ccc(C[C@H]3COC(=O)N3)cc12

51.8
110
104
